Measured GI50 on TK-10 renal follows.
Assay Endpoint: GI50

smiles_str=COc1ccc(/C=C2\CN(Cc3cn(CCCNc4ccnc5cc(Cl)ccc45)nn3)C/C(=C\c3ccc(OC)c(OC)c3)C2=O)cc1OC result="2950 nM"
smiles_str=CCOC(=O)c1c(-c2ccccc2)[n+](=O)c2ccc(Cl)cc2n1[O-] result="4550 nM"
smiles_str=COc1ccc(N(CC(=O)NCCC[Te]c2ccccc2)C(=O)CCSC2=C(C)C(=O)c3ccccc3C2=O)cc1 result="3250 nM"
smiles_str=Cn1cccc1-c1cc(-c2cccs2)[nH]c(=O)c1C#N result="> 100000 nM"
smiles_str=N=C(N)c1ccc(-c2ccc(-c3ccc(Cl)cc3)o2)o1 result="2070 nM"
smiles_str=NC1=C(Cl)C(=O)c2ccc(S(N)(=O)=O)cc2C1=O result="1560 nM"

Value source: PubChem BioAssay (NCI)
